- MEASUREMENT_NOTES: Pharmacokinetics in vivo after single oral or intravenous administration
- Parameters: species or system rat
- ASSAY_CONDITIONS: male, Wistar, plasma, iv; rats, i.v. injection, 10 mg/kg, individual rat; read-out: AUC 0-t
READOUT_TYPE: AUC(0-t) (ng·h/mL)

>>> experimental_result("O=S1(=O)COc2cc(-c3ccc(OCC4CCN(c5ncc(Cl)cn5)CC4)c(F)c3)ccc21")
244

###

- MEASUREMENT_NOTES: Biotransformation in vitro, microsomal stability (rat)
- Format: in vitro ADME
- ASSAY_CONDITIONS: Rat microsomal fraction; in mL/min/kg (unit assumed)
READOUT_TYPE: CLh

>>> experimental_result("CC(C)(C)OC(=O)N1CCC(COc2ccc(-c3ccc4c(c3)OCS4(=O)=O)cn2)CC1 [ZB-19]")
44.29
>>> experimental_result("CC(C)(C)OC(=O)N1CCC(COc2ccc(-c3ccc4c(c3)OCS4(=O)=O)cc2F)CC1 [ZB-09]")
40.97
>>> experimental_result("O=S1(=O)COc2cc(-c3ccc(OCC4CCN(c5ncc(Cl)cn5)CC4)c(F)c3)ccc21 [ZB-16]")
32.09
>>> experimental_result("O=S1(=O)COc2cc(-c3ccc(OCC4CCN(c5ncc(Cl)cn5)CC4)nc3)ccc21 [ZB-20]")
22.53

###

Item-by-item account of microsomal CLint at 0.5 μM
- MEASUREMENT_NOTES: Biotransformation in vitro, microsomal stability (human)
- Type: in vitro ADME
- ASSAY_CONDITIONS: liver microsomal fraction
READOUT_TYPE: microsomal CLint at 0.5 μM (µL/min/mg)

>>> experimental_result("O=S1(=O)COc2cc(-c3ccc(OCC4CCN(c5ncc(Cl)cn5)CC4)c(F)c3)ccc21 [ZB-16]")
65.2
>>> experimental_result("O=S1(=O)COc2cc(-c3ccc(OCC4CCN(c5ncc(Cl)cn5)CC4)nc3)ccc21 [ZB-20]")
68
>>> experimental_result("CC(C)(C)OC(=O)N1CCC(COc2ccc(-c3ccc4c(c3)OCS4(=O)=O)cn2)CC1 [ZB-19]")
1110
>>> experimental_result("CC(C)(C)OC(=O)N1CCC(COc2ccc(-c3ccc4c(c3)OCS4(=O)=O)cc2F)CC1 [ZB-09]")
666

###

- MEASUREMENT_NOTES: physchem
- ASSAY_CONDITIONS: pH 4, aqueous buffer, kinetic from dmso stock
READOUT_TYPE: solubility (µM)

>>> experimental_result("CC/C(=C(/CC)c1ccc(O)cc1)c1ccc(O)cc1 [Diethylstilbestrol, reference compound]")
10

###

Reported pEC50 is given for each of the following compounds.
- EXPERIMENTAL_SYSTEM: human GPR119 (hGPR119) (Homo sapiens, UniProt Q8TDV5)
- Construct: expressed in transfected cells; host or cells: CHO-K1 (Chinese hamster ovary)
- Sequence (Q8TDV5 whole entry): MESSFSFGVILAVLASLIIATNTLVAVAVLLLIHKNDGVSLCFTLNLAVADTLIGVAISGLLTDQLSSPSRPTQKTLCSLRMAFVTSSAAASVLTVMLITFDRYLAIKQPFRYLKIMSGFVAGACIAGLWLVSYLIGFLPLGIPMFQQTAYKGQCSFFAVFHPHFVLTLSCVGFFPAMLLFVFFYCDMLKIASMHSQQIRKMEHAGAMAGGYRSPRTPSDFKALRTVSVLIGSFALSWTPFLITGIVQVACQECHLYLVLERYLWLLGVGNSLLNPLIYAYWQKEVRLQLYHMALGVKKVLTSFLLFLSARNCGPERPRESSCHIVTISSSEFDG
- MEASUREMENT_NOTES: Specific (agonistic) activity in vitro, cAMP increase (Lance Ultra cAMP kit) in CHO-K1 cells expressing hGPR119
- Assay type: cell-based
- ASSAY_CONDITIONS: CHO-K1 hGPR119, cAMP
pEC50: −log10 of the molar value.
READOUT_TYPE: pEC50

>>> experimental_result("CC(C)(C)OC(=O)N1CCC(COc2ccc(-c3ccc4c(c3)OCS4(=O)=O)cn2)CC1")
7.96
>>> experimental_result("O=S1(=O)COc2cc(-c3ccc(OCC4CCN(c5ncc(Cl)cn5)CC4)nc3)ccc21")
7.53
>>> experimental_result("O=S1(=O)COc2cc(-c3ccc(OCC4CCN(c5ncc(Cl)cn5)CC4)c(F)c3)ccc21")
8.14
>>> experimental_result("O=S1(=O)COc2cc(-c3ccc(OCC4CCN(CC(F)(F)F)CC4)c(F)c3)ccc21")
7.20
>>> experimental_result("CCN1C(=O)c2ccccc2S(=O)(=O)c2ccc(C(=O)NCc3ccc(F)cc3)cc21")
4.97
>>> experimental_result("CCN1C(=O)c2ccccc2S(=O)(=O)c2ccc(C(=O)NCCc3ccc(Cl)cc3)cc21")
7.15
>>> experimental_result("CC(C)OC(=O)N1CCC(COc2ccc(-c3ccc4c(c3)OCS4(=O)=O)cc2F)CC1")
7.90

Provenance of the data: paper PMC6156125
